Recorded values, source PubChem BioAssay.

Exercise: for every item that follows, state its recorded composite z-score.
Tested on: XIP peptide (Xip251-270)
Experiment: small-molecule binders of XIP peptide, primary screen, biochemical, small-molecule microarray, fluorescence 635/667 nm, 0.5 µg/mL protein (AID 1183)
Conditions: small-molecule microarray binding, fluorescence 635 nm; higher = more signal
Numbers only.

Recorded results for 6 compounds are shown here.
>>> recorded_value("Cc1ccc(N2C(=O)c3ccccc3[C@](C)(C(=O)O)[C@@H]2c2ccc(CO)cc2)nc1")
-1.16
>>> recorded_value("Cc1ccc(S[C@]2(C(=O)NCCN3CCOCC3)CC(=O)N(C3Cc4ccccc4C3)[C@@H]2c2ccc(CO)cc2I)cc1")
0.771
>>> recorded_value("C=CC[C@@]1(C(=O)N2CCOCC2)N=C(c2ccc(OCCCO)cc2)O[C@@H]1c1ccccc1")
-0.526
>>> recorded_value("C=CCNC(=O)[C@H]1[C@@H]2C(=O)O[C@@H](c3ccccc3)[C@@H](c3ccccc3)N2[C@@H](c2ccc(O)cc2)[C@]12C(=O)Nc1ccc(C#CCNC(N)=O)cc12")
0.0866
>>> recorded_value("O=C1C[C@@](C(=O)NCCN2CCOCC2)(c2ccc([N+](=O)[O-])cc2)[C@@H](c2ccc(CO)cc2)N1C1CCCCC1")
0.818
>>> recorded_value("CO[C@H]1O[C@H](CO)[C@@H](OC(=O)Nc2ccc3c(c2)OCO3)[C@H](OC(=O)Nc2ccccc2)[C@@H]1OC(=O)Nc1ccccc1")
0.649

Would you kindly look at the next entry?
stdin: What value of composite z-score has been recorded for this entry: CC(C)NC(=O)[C@@]1(Cc2ccccc2I)c2ccccc2C(=O)N(C2CCCCC2)[C@H]1c1ccc(CO)cc1
stdout: 0.84

###

I'd be grateful if you could share measured composite z-score for these entries.
Target: Dickkopf-related protein 1 (Homo sapiens) (UniProt O94907)
Sequence (O94907 whole entry, looked up): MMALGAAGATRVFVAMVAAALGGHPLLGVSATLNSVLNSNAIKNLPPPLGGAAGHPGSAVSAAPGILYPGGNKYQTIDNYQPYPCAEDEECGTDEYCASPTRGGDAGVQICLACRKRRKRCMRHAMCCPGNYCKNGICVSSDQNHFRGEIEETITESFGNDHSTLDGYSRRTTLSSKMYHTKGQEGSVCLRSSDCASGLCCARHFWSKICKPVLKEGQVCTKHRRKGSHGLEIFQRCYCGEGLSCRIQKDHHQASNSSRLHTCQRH
Assay: DKK1 binders on small-molecule microarrays, primary screen, biochemical, small-molecule microarray, 635 nm fluorescence scan (AID 1106);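 further: score merges emission near 667 nm with signal to noise over three replicate slides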
Settings: DKK1 binding, higher = more signal
Numbers only.

Below are 3 compounds. Give each one its composite z-score.
1. O=C1O[C@@H](c2ccccc2)[C@@H](c2ccccc2)N2[C@@H](c3ccc(O)cc3)[C@]3(C(=O)Nc4ccc(C#CC5(O)CCCCCC5)cc43)[C@@H](C(=O)Nc3nc4ccccc4s3)[C@H]12
2. C=CC[C@]1(C(=O)O)N=C(c2ccc(OCCCO)cc2)O[C@H]1c1ccccc1
3. C=CC[C@]1(C(=O)OC)N=C(c2ccc(OCCCO)cc2)O[C@H]1c1ccccc1CN=[N+]=[N-]

stdout:
0.892
-0.968
-0.795

Batch of 3 compounds: report composite z-score for each.
1. COc1cc([C@@H]2N[C@H](C(=O)O)Cc3c2[nH]c2ccccc32)cc(OC)c1OC
2. O=C1c2ccccc2[C@](Cc2ccccc2I)(C(=O)NCC(F)(F)F)[C@H](c2ccc(CO)cc2)N1Cc1ccccc1C(F)(F)F
3. NC(=O)[C@H]1[C@@H]2C(=O)O[C@@H](c3ccccc3)[C@@H](c3ccccc3)N2[C@@H](c2ccc(O)cc2)[C@]12C(=O)Nc1ccc(C#CCCO)cc12

stdout:
[0.977, 0.0221, -0.889]

Would you be so kind as to report composite z-score for each listed record?
1. COc1ccc([C@H]2C[C@H]3C(Br)=C[C@]2(OC)C(=O)[C@]32CO2)cc1
2. CC(C)(C)OC(=O)CC[C@]1(C(=O)N2CCCCC2)N=C(c2ccc(OCCCO)cc2)O[C@H]1c1ccccc1
3. C=CCNC(=O)[C@@H]1[C@H]2C(=O)O[C@H](c3ccccc3)[C@H](c3ccccc3)N2[C@H](c2ccc(OCCO)cc2)[C@@]12C(=O)N(C(=O)OCCOC)c1ccc(C#CC3(O)CCCCCC3)cc12
4. CC(C)=C1C(=O)C(c2ccccc2)=C2CN3C(=O)N(CCc4ccccc4)C(=O)[C@]3(Cc3ccccc3)[C@H]21

stdout:
1. 0.239
2. 0.691
3. 0.125
4. -1.86

Required: composite z-score, one value per compound below.
1. Cc1ccc(N2C(=O)c3ccccc3[C@@H](C(=O)NCC(F)(F)F)[C@@H]2c2ccc(CO)cc2)nc1
2. COC(=O)[C@@]1(Cc2ccc(OC)cc2)[C@H]2c3cc(C(=O)N(C)C)n(CCc4ccc(OC)c(Br)c4)c3C[C@H]2CN1C(=O)c1ccccc1

stdout:
1. -1.69
2. -0.884

Hi! Can you tell me composite z-score for each of these compounds?
1. COc1cc(CO)cc(I)c1O[C@H]1C=C(C(=O)NCCO)C[C@@H](NCCc2c[nH]c3ccccc23)[C@@H]1O
2. COc1ccc(C(=O)Nc2ccc(CN3C(=O)[C@]4(O[C@H](CCn5cc(CCO)nn5)[C@@H]([Si](C)(C)c5ccc(OC)cc5)[C@@H]4C)c4ccccc43)cc2)cc1

stdout:
1. 0.4
2. -0.0456
